SIF (3 hours): percent of prodrug metabolized to riluzole: recorded values
# measurement_notes: Stability in Simulated Intestinal Fluid (SIF)
# Type: in vitro ADME
# condition_set: 37° C., 0.01 mg/mL
Write the quantity with the unit trailing the number.

Worked cases, SIF (3 hours): percent of prodrug metabolized to riluzole given:
{"mol": "C[C@H](N)C(=O)Nc1nc2ccc(OC(F)(F)F)cc2s1", "experimental_value": "50%"}
{"mol": "COC(=O)Nc1nc2ccc(OC(F)(F)F)cc2s1", "experimental_value": "0%"}
{"mol": "N[C@@H](COCc1ccccc1)C(=O)Nc1nc2ccc(OC(F)(F)F)cc2s1", "experimental_value": "0%"}
{"mol": "Nc1ccc(C(=O)Nc2nc3ccc(OC(F)(F)F)cc3s2)cc1", "experimental_value": "0%"}

Any idea what SIF (3 hours): percent of prodrug metabolized to riluzole was measured for O=C(CCC(=O)Nc1nc2ccc(OC(F)(F)F)cc2s1)NCCN1CCOCC1 ?
60%

These entries and their values trace back to patent US12172974B2.
